Target: T1, SARS-COV-2 RBD (SARS-COV-2, UniProt P0DTC2 319-539)
T1 construct: also called WT RBD
Test: ELISA, RBD coated on plate
Result type: EC50
Could you give the number and then its unit, please?

Example entries begin here.
- Binder: "C951 (antibody, V domains shown) VH: QVQLQESGPRLVKPSGTLSLTCAVSGGSISTTNWWSWVRQPPGKGLEWIGEIHHSGNTNYNPSLKSRVTISVDRSKNQFSLKLSSVTAADTAVYFCARDGGRPGDPFDIWGQGTMVTVSS VL: QSALTQPASVSGSPGQSITISCTGTSSDVGGYNYVSWYQQHPGKAPNLMIYDVSDRPSGVSNRFSGSKSGNTASLTISGLQAEDEADYYCNSFTSNSTRVFGTGTKVTV"
  Result: "0.81 ng/mL"
- Binder: "C948 (antibody, V domains shown) VH: EVQLVESGGGLVQPGGSLRLSCAASGFTFSRYDMHWVRQATGKGLEWVSIIGTAGDTYYPGSVKGRFTISRDNAKNSLFLQMNSLRAGDTAVYYCARANYDSSGYHNWFDPWGQGTLVTVSS VL: DIQMTQSPSSLSASIGDRVTITCRASQNINSYLNWYQQKPGKAPKLLIYAASSLQSGVPSRFSGSGSGTDFTLTINSLQPEDFATYYCQQSYSMPSWTFGQGTKVEI"
  Result: "3.26 ng/mL"
- Binder: "C1007 (antibody, V domains shown) VH: QVQLVQSGSEMKKPGSSVKVSCKAAGGTLNTHTFSWVRQAPGQGLEWMGRITPTVDLTNYAQKFQGRITITADTSTNTAYLELRRLRSEDTAIYYCATPLNDYYASGNLGLWGQGTLVTVSS VL: DIQMTQSPSSLSASIGDTVTITCRASQGISYYLAWFQRKPGKAPKSLIYDASSLQSGVPSKFSGSGSGTDFTLTISSLQPEDSATYYCQQYSTYPLTFGGGTKVEIK"
  Result: "3.22 ng/mL"
- Binder: "C1030 (antibody, V domains shown) VH: EVQLVESGGGLVQPGGSLRLSCEASGVIVSSNYMNWVRQAPGKGPEWVSVLYAGGSTFYADSVKGRFTISRDDSKNTLFLQMNNLRAEDTAVYFCARDLIAFGMDVWGQGTTVTVSS VL: DIQLTQSPSFLSASVGDRVTITCRASQGINSDLAWYQQKPGKAPKLLIYGASTLQSGVPSRFSGSGSGTEFSLTVSSLQPEDFATYYCQQLNSYRRFGGGTKVEIK"
  Result: "2.78 ng/mL"

Now let's try a different one.
Q: Input C1021 (antibody, V domains shown) VH: QVQLVQSGAELKKPGASVKVSCKASGYTFSTYYIHWVRQAPGQGLEWMGIINPEAGSTSYAQKFQGRVTMTTDTSTSTVYMELISLRSQDTAIYYCARDAVGVPAINSLEYWGQGTLVTVSS VL: EIVLTQSPATLSLSPGERATLSCRASQSISSYLAWYQQKPGQAPRLLIYDASNRATDISARFSGSGSGTDFTLTISSLEPEDFAVYYCQHRSNWPPSFTFGGGTKVEIK , output reported EC50.
Result: 2.53 ng/mL
